Consider the following binders; for each one, report its optical density.
system: T1, Human ACVR2A (human, UniProt P27037 20-135, limits assumed); further: test concentration or dose not given here
T1 construct: also called activin receptor, type II A
T1 sequence (P27037 20-135 limits assumed): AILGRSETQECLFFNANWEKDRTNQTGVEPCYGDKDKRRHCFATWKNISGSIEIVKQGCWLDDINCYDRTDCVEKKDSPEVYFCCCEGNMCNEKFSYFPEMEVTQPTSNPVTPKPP
assay.summary: ELISA
Give the value, in units of OD, as a plain number.

Req: Identify optical density associated with the binder 366_G05 (antibody, V domains shown, VH/VL only) VH: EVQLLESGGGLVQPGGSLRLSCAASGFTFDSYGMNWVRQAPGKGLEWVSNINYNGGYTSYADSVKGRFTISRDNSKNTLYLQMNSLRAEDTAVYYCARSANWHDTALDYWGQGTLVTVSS VL: DIQMTQSPSSLSASVGDRVTITCRASQSIISYVNWYQQKPGKAPKLVIYAATSRASGVPSRFSGSGSGTDFTLTISSLQPEDFATYYCQQSYENPLTFGGGTKVEIK
Resp: 2.21

Req: Identify optical density associated with the binder 367_H10 (antibody, V domains shown, VH/VL only) VH: EVQLLESGGGLVQPGGSLRLSCAASGFTFSSYGMNWVRQAPGKGLEWVASINYNGGYTGYADSVKGRFTISRDNSKNTLYLQMNSLRAEDTAVYYCARGATWHDTHLDYWGQGTLVTVSS VL: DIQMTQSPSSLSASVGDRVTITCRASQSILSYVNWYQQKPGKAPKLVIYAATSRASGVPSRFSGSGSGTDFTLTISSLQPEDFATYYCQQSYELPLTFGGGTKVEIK
Resp: 2.58

Req: Identify optical density associated with the binder 375_F10 (antibody, V domains shown, VH/VL only) VH: EVQLLESGGGLVQPGGSLRLSCAASGFTFSSYSMNWVRQAPGKGLEWVSGINYNGGYTGYADSVKGRFTISRDNSKNTLYLQMNSLRAEDTAVYYCARGATWHDTHLDYWGQGTLVTVSS VL: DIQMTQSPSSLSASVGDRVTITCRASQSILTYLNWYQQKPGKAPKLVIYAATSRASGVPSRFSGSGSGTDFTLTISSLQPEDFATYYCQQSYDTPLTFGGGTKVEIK
Resp: 3.69

Req: Identify optical density associated with the binder 368_G10 (antibody, V domains shown, VH/VL only) VH: EVQLLESGGGLVQPGGSLRLSCAASGFTFSSYSMHWVRQAPGKGLEWVSSINYNGGYTSYADSVKGRFTISRDNSKNTLYLQMNSLRAEDTAVYYCARGATWHDTHLDYWGQGTLVTVSS VL: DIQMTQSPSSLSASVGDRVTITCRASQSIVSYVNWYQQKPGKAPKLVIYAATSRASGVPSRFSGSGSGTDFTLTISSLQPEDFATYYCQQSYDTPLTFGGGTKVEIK
Resp: 2.06

Req: Identify optical density associated with the binder 367_B06 (antibody, V domains shown, VH/VL only) VH: EVQLLESGGGLVQPGGSLRLSCAASGFTFSSYSMNWVRQAPGKGLEWVANINYNGGYTGYADSVKGRFTISRDNSKNTLYLQMNSLRAEDTAVYYCARGATWHDTHLDYWGQGTLVTVSS VL: DIQMTQSPSSLSASVGDRVTITCRASQSIISYVNWYQQKPGKAPKLVIYAATSLHSGVPSRFSGSGSGTDFTLTISSLQPEDFATYYCQQSYNSPLTFGGGTKVEIK
Resp: 1.82

Req: Identify optical density associated with the binder 376_F06 (antibody, V domains shown, VH/VL only) VH: EVQLLESGGGLVQPGGSLRLSCAASGFTFSSYGMNWVRQAPGKGLEWVSGINYNGGYTGYADSVKGRFTISRDNSKNTLYLQMNSLRAEDTAVYYCARGANWHDTHLDYWGQGTLVTVSS VL: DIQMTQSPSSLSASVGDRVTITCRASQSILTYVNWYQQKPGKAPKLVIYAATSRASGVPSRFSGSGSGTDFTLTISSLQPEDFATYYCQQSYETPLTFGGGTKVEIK
Resp: 3.52

Req: Identify optical density associated with the binder 371_F09 (antibody, V domains shown, VH/VL only) VH: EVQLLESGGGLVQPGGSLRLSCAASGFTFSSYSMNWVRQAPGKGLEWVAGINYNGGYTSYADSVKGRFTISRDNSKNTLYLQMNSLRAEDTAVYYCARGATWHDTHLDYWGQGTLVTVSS VL: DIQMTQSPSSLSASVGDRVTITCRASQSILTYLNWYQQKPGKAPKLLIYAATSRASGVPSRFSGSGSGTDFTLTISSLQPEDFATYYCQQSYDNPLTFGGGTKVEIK
Resp: 3.37

Req: Identify optical density associated with the binder 375_H08 (antibody, V domains shown, VH/VL only) VH: EVQLLESGGGLVQPGGSLRLSCAASGFTFSSYSMNWVRQAPGKGLEWVSGINYNGGYTSYADSVKGRFTISRDNSKNTLYLQMNSLRAEDTAVYYCARGATWHDTHLDYWGQGTLVTVSS VL: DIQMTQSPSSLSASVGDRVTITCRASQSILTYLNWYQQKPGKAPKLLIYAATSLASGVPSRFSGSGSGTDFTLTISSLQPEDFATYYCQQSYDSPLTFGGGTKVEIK
Resp: 3.31

Req: Identify optical density associated with the binder 366_D08 (antibody, V domains shown, VH/VL only) VH: EVQLLESGGGLVQPGGSLRLSCAASGFTFSSYGMHWVRQAPGKGLEWVSNINYNGGYKSYADSVKGRFTISRDNSKNTLYLQMNSLRAEDTAVYYCARGATWHDTHLDYWGQGTLVTVSS VL: DIQMTQSPSSLSASVGDRVTITCRASQSILSYVNWYQQKPGKAPKLVIYAATSLASGVPSRFSGSGSGTDFTLTISSLQPEDFATYYCQQSYENPLTFGGGTKVEIK
Resp: 2.17

Req: Identify optical density associated with the binder 370_D03 (antibody, V domains shown, VH/VL only) VH: EVQLLESGGGLVQPGGSLRLSCAASGFTFSSYSMNWVRQAPGKGLEWVASINYNGGYTSYADSVKGRFTISRDNSKNTLYLQMNSLRAEDTAVYYCARGATWHDTHLDYWGQGTLVTVSS VL: DIQMTQSPSSLSASVGDRVTITCRASQSIITYLNWYQQKPGKAPKLLIYAATSRASGVPSRFSGSGSGTDFTLTISSLQPEDFATYYCQQSYDLPLTFGGGTKVEIK
Resp: 3.13
